These entries and their values trace back to patent US20230303690A1.

- measuredOn: T1, human LAG3 expressed on cells (human, UniProt P18627 23-525)
- T1 sequence (looked up): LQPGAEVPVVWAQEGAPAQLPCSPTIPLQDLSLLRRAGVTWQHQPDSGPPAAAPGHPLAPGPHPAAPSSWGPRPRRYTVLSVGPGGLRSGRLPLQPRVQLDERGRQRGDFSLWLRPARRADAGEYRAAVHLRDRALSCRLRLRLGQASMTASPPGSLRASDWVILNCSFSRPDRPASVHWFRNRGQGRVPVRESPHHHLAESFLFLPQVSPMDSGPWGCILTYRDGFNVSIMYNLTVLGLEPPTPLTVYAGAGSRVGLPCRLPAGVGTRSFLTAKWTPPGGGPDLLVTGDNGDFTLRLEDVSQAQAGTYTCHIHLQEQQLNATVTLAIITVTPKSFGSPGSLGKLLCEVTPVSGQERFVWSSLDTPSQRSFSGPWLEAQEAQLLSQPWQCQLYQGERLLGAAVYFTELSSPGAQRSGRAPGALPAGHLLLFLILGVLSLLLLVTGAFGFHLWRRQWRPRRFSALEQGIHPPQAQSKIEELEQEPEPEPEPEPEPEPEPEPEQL
- procedureSummary: cell-based or functional assay
The following binders are listed with their measured IL-2, % of BMS, at 0.045724737 ug/mL values.
Provide only the numeric value, understood in %.

{"binder": "sdAb No. 27 (VHH, Fc of the tested form not described; also called sdAb 27; not shown: Fc part implied by anti-human Fc capture and anti-human IgG Fc detection) VHH: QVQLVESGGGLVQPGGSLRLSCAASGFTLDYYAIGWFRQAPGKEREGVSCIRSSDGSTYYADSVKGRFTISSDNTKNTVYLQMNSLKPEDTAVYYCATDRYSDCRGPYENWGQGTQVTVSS", "measuredEndpoint": "IL-2, % of BMS, at 0.045724737 ug/mL", "observedValue": 12.1}
{"binder": "sdAb No. 25 (VHH, Fc of the tested form not described; also called sdAb 25; sdAb #25; not shown: Fc part implied by anti-human Fc capture and anti-human IgG Fc detection) VHH: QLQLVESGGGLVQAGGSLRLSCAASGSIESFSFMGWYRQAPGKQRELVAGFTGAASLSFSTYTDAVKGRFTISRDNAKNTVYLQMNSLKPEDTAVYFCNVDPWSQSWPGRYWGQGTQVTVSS", "measuredEndpoint": "IL-2, % of BMS, at 0.045724737 ug/mL", "observedValue": 8.03}
{"binder": "sdAb No. 24 (VHH, Fc of the tested form not described; also called sdAb 24; not shown: Fc part implied by anti-human Fc capture) VHH: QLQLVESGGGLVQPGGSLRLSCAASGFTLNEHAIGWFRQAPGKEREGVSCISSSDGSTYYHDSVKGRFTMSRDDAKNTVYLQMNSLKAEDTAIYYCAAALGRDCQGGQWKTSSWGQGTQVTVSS", "measuredEndpoint": "IL-2, % of BMS, at 0.045724737 ug/mL", "observedValue": 3.44}

Ask: For the binder shown here, sdAb No. 1 (VHH, the tested form was captured by anti-human Fc, its Fc is not described; also called sdAb 1; not shown: Fc part implied by anti-human Fc capture) VHH: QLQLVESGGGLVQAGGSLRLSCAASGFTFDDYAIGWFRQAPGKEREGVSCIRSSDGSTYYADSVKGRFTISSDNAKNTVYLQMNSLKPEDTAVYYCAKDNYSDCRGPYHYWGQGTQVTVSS , give the reported IL-2, % of BMS, at 0.045724737 ug/mL.
Result: 6.07
